- Assayed System: Plasmepsin II (Plasmodium falciparum)
- Measurement Notes: Inhibition of Plasmodium falciparum plasmepsin-2 using DABCYL-Glu-Arg-Nle-Phe-Leu-Ser-Phe-Pro-EDANS as substrate preincubated for 30 mins by FRET assay
Endpoint Name: IC50 (µM)

Some entries whose results are on file:
CCCN(CCC)C(=O)c1cc(C(=O)N[C@@H](Cc2ccccc2)[C@H](O)CNC(C)(C)c2cccc(O)c2)cc(N2CCCCC2)c1	0.1
CCCN(CCC)C(=O)c1cc(C(=O)N[C@@H](Cc2ccccc2)[C@H](O)CNC(C)(C)c2cccnc2)cc(N2CCCCC2)c1	0.19

(I) CCCN(CCC)C(=O)c1cc(C(=O)N[C@@H](Cc2ccccc2)[C@H](O)CNC(C)(C)c2cccc(OC)c2)cc(C2CCCCC2)c1
(II) CCCN(CCC)C(=O)c1cc(C(=O)N[C@@H](Cc2ccccc2)[C@H](O)CNC(C)(C)c2cccc(OC)c2)cc(N2CCCC2)c1
Choose between I and II : whose measured IC50 value is numerically larger? Response format: the label of the selected entry. II

* * *

- Assayed System: UniProt P07339
- Sequence (P07339 65-162 limits assumed): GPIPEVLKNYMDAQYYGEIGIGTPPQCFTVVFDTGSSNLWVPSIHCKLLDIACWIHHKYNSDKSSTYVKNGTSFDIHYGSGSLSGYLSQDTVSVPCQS
- Sequence (P07339 169-412 limits assumed): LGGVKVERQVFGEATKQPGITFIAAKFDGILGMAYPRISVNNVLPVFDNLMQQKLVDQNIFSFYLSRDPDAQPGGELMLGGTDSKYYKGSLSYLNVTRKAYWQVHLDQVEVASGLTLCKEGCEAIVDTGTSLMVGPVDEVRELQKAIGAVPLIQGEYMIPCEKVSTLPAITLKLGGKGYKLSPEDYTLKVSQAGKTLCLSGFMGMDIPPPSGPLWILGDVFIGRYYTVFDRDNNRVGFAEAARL
Endpoint Name: IC50 (nM)

CCCN(CCC)C(=O)c1cc(C(=O)N[C@@H](Cc2ccccc2)[C@H](O)CNC(C)(C)c2cccc(OC)c2)cc(-c2ccccc2)c1	54

(a) CCCN(CCC)C(=O)c1cc(C(=O)N[C@@H](Cc2ccccc2)[C@H](O)CNC(C)(C)c2cccc(O)c2)cc(N2CCCCC2)c1
(b) CCCN(CCC)C(=O)c1cc(C(=O)N[C@@H](Cc2ccccc2)[C@H](O)CNC(C)(C)c2ccncc2)cc(N2CCCCC2)c1
Could you determine which record has the numerically smaller IC50? Candidates: a and b Answer by quoting the chosen item's label. a

* * *

- Assayed System: Plasmepsin II (Plasmodium falciparum, UniProt P46925)
- Sequence (P46925 whole entry): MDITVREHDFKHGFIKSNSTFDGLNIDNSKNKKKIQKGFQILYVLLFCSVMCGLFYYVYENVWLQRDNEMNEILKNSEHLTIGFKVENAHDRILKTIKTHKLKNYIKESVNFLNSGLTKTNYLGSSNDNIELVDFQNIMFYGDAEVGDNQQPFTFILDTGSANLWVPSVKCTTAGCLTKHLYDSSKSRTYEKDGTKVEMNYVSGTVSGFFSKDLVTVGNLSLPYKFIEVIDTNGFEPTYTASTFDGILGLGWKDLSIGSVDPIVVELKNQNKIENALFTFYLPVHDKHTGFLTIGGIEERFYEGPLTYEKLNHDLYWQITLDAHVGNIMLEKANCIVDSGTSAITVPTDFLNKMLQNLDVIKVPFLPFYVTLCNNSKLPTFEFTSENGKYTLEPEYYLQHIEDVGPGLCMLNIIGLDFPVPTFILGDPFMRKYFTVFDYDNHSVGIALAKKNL
pIC50: −log10 of the molar value.
Endpoint Name: pIC50

CCCN(CCC)C(=O)c1cc(C(=O)N[C@@H](Cc2ccccc2)[C@H](O)CNC(C)(C)c2ccccc2)cc(N2CCCCC2)c1	6.96

(1) CCCN(CCC)C(=O)c1cc(C(=O)N[C@@H](Cc2ccccc2)[C@H](O)CNC(C)(C)c2cccc(OC)c2)cc(N2CCCCS2(=O)=O)c1
(2) CCCN(CCC)C(=O)c1cc(C(=O)N[C@@H](Cc2ccccc2)[C@H](O)CNC(C)(C)c2ccncc2)cc(N2CCCCC2)c1
(3) CCCN(CCC)C(=O)c1cc(C(=O)N[C@@H](Cc2ccccc2)[C@H](O)CNCc2cccc(OC)c2)cc(N2CCCCS2(=O)=O)c1
With regard to pIC50, arrange the entries in ascending order, please. Put the labels in the requested order and write them down. 3, 2, 1
